test system: P388 leukemia ip, CD2F1 mice, survival T/C; test: NCI In Vivo Anticancer Drug Screen. Data for tumor model P388 Leukemia (intraperitoneal) in CD2F1 (CDF1) mice; conditions: endpoint: median survival time; dose: 50.0 mg/kg/injection; schedule: Q01DX005 (ip); vehicle: saline with Tween-80; higher = longer survival
Inconclusive results and toxic doses are left out.
Examples of compounds with documented T/C follow.
measurement kind: T/C

{"compound": "O=C(O)Cc1cccc(=O)c(O)c1C(=O)O", "test system": "P388 leukemia ip, CD2F1 mice, survival T/C", "value reported": "98 % of control"}
{"compound": "CCC(CC)(C(=O)Nc1ccc2[nH]c3ccccc3c(=O)c2c1)C(=O)Nc1ccc2[nH]c3ccccc3c(=O)c2c1", "test system": "P388 leukemia ip, CD2F1 mice, survival T/C", "value reported": "97 % of control"}
{"compound": "O=C1CC2C(=O)NC(=O)C2C(=O)N1 (stereo unspecified)", "test system": "P388 leukemia ip, CD2F1 mice, survival T/C", "value reported": "104 % of control"}
{"compound": "CCC1C2Cc3ccc(O)cc3C1(CC)CCN2C (stereo unspecified)", "test system": "P388 leukemia ip, CD2F1 mice, survival T/C", "value reported": "100 % of control"}
{"compound": "O=C(O)c1cn(C2CCCCC2)c(=O)[nH]c1=O", "test system": "P388 leukemia ip, CD2F1 mice, survival T/C", "value reported": "99 % of control"}
{"compound": "Cc1cc(=O)c2ccc3c(c2[nH]1)Oc1ccc2c(=O)cc(C)[nH]c2c1O3", "test system": "P388 leukemia ip, CD2F1 mice, survival T/C", "value reported": "98 % of control"}

Values were extracted from PubChem BioAssay AID330.
